# Test system: PIK3CD (Human) (UniProt O00329)
# Sequence (O00329 whole entry, looked up): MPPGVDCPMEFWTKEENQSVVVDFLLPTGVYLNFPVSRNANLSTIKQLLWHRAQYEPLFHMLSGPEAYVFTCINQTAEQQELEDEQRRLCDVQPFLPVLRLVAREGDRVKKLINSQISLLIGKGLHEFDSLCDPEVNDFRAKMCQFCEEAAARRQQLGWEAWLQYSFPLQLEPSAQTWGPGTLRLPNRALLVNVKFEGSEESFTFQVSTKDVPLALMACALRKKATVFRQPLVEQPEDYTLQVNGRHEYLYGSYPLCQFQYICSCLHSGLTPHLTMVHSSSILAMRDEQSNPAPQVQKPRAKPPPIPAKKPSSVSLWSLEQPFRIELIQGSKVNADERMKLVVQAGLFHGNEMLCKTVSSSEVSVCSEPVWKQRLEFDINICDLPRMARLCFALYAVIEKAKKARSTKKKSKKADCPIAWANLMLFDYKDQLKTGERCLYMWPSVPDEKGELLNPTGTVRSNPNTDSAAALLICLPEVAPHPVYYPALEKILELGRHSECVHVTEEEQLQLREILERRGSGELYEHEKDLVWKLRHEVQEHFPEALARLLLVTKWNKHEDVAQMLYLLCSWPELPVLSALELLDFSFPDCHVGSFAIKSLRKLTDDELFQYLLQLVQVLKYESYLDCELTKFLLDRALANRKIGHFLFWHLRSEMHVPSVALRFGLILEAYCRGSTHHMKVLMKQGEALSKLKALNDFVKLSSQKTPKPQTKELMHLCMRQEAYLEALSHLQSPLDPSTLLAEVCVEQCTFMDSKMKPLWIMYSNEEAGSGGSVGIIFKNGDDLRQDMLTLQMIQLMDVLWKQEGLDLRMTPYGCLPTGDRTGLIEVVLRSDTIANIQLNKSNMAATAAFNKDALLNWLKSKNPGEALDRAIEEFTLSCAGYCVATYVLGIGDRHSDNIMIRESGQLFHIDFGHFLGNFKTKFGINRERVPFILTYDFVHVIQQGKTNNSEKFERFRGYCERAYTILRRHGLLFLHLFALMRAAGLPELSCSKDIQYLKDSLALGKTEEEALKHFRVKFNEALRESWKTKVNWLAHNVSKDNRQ
Property: pIC50
Numbers only, as −log10 of the molar value.

Query: Looking for the measured pIC50 of `CCn1cc(-n2c(=O)n(C)c3cnc4ccc(-c5cnc(C)c(OC(C)C)c5)cc4c32)c(C)n1` , can you help?
Result: 8.30
